- Test system: Angiotensin II receptor (AT-1) type-1 (Rattus norvegicus, UniProt P29089+P25095)
- Experiment: Concentration required for 50% inhibition of [125I]- AII binding to rat liver membrane preparation (AT1)
Measurement type: log10(IC50) (log10 of the value in nM)

>  <Compound>
CCCc1nc(SC)c(C(=O)C[S+]([O-])c2ccc(C)cc2)n1Cc1ccc(-c2ccccc2S(=O)(=O)NC(=O)NCc2ccccc2)cc1 (single isomer, unassigned; 7g)

>  <log10(IC50)>
-1.15

$$$$
>  <Compound>
CCCc1nc(SC)c(C(=O)CC#N)n1Cc1ccc(-c2ccccc2S(=O)(=O)NC(=O)NCc2ccccc2)cc1

>  <log10(IC50)>
-0.52

$$$$
>  <Compound>
CCCc1nc(SC)c(C(=O)C[S+]([O-])c2ccc(C)cc2)n1Cc1ccc(-c2ccccc2S(=O)(=O)NC(=O)NCc2ccccc2)cc1 (single isomer, unassigned; 7h)

>  <log10(IC50)>
-1.52

$$$$
>  <Compound>
CCCc1nc(SC)c(C(=O)C[S+]([O-])c2ccccc2)n1Cc1ccc(-c2ccccc2S(=O)(=O)NC(=O)NCc2ccccc2)cc1 (stereo unspecified)

>  <log10(IC50)>
-1.10

$$$$
>  <Compound>
CCCc1nc(SC)c(C(C)=O)n1Cc1ccc(-c2ccccc2S(=O)(=O)NC(=O)NCc2ccccc2)cc1

>  <log10(IC50)>
-1.10

$$$$
>  <Compound>
CCCc1nc(SC)c(C(=O)C[S+]([O-])c2ccccc2)n1Cc1ccc(-c2ccccc2S(=O)(=O)NC(=O)NCc2cccs2)cc1 (stereo unspecified)

>  <log10(IC50)>
-1.70

$$$$

----------
- Experiment: Concentration required for 50% inhibition of [125I]- AII binding to rabbit uterus membrane preparation (AT2)
- Type: tissue-based, Oryctolagus cuniculus

>  <Compound>
CCCc1nc(SC)c(C(=O)C[S+]([O-])c2ccccc2)n1Cc1ccc(-c2ccccc2S(=O)(=O)NC(=O)NCC2CCCCC2)cc1 (centres undefined)

>  <Readout units>
nM

>  <IC50>
4

$$$$
>  <Compound>
CCCCc1nc(SC)c(C(=O)CC(=O)OCC)n1Cc1ccc(-c2ccccc2S(=O)(=O)NC(=O)NCc2ccccc2)cc1

>  <Readout units>
nM

>  <IC50>
1

$$$$
>  <Compound>
CCCCc1nc(SC)c(C(=O)CS(=O)(=O)c2ccccc2)n1Cc1ccc(-c2ccccc2S(=O)(=O)NC(=O)NCc2ccccc2)cc1

>  <Readout units>
nM

>  <IC50>
1.7

$$$$
>  <Compound>
CCCCc1nc(SC)c(C(=O)CC(=O)c2ccccc2)n1Cc1ccc(-c2ccccc2S(=O)(=O)NC(=O)NCc2ccccc2)cc1

>  <Readout units>
nM

>  <IC50>
114

$$$$

----------
- Experiment: Concentration required for 50% inhibition of [125I]- AII binding to rabbit uterus membrane preparation (AT2)
- Format: tissue-based, Oryctolagus cuniculus
pIC50: −log10 of the molar value.
Measurement type: pIC50

>  <Molecule>
CCCCc1nc(SC)c(C(=O)C[S+]([O-])c2ccccc2)n1Cc1ccc(-c2ccccc2S(=O)(=O)NC(=O)NCc2ccccc2)cc1 (stereo not drawn)

>  <Result>
8.52

$$$$
>  <Molecule>
CCCCc1nc(SC)c(C(=O)O)n1Cc1ccc(-c2ccccc2S(=O)(=O)NC(=O)NCCC)cc1

>  <Result>
6.04

$$$$
>  <Molecule>
CCCc1nc(SC)c(C(=O)CSc2ccccc2)n1Cc1ccc(-c2ccccc2S(=O)(=O)NC(=O)NCc2ccccc2)cc1

>  <Result>
7.03

$$$$

Each recorded value in this set is attributed to ChEMBL document CHEMBL1151521.
